- Test name: self-splicing fitness, log relative to wild type (ln ratio); higher = more splicing; Tetrahymena group I intron in knt gene, E. coli kanamycin selection, DiMSum; sequences stand for … in CUCUCU…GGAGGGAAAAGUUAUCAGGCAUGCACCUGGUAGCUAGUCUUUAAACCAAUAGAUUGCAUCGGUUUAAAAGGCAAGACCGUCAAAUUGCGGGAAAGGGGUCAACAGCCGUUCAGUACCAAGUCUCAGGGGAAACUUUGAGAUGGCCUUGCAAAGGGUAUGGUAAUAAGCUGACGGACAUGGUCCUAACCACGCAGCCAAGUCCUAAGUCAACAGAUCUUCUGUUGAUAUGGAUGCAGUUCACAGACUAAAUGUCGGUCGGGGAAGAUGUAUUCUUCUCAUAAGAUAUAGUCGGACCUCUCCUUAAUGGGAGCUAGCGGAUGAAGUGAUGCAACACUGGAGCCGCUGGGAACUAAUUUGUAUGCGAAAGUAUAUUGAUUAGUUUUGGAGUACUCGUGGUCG;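 note: selection with 25 µg/mL kanamycin versus none on LB agar overnight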
- Experimental parameters: 37 °C
Test readout: self-splicing fitness (ln)
Numbers only.

Study these solved cases before continuing.
# Residues, self-splicing fitness (ln)
rows = [
    ("GUUGAGCAAUAUUACGACAU", -0.067),
    ("AUCAAGCAAUAUUACGUAUA", -2.31),
    ("UUACAGCAAUAUUACGGUCG", 0.571),
    ("UAGUAGCAAUAUUACGGCUG", -0.0985),
    ("AACCAGCAAUAUUACGUCUC", -0.774),
    ("AGCCAGCAAUAUUACGGUUG", -0.86),
    ("AUAAAGCAAUAUUACGAAAA", -0.609),
    ("GUAGAGCAAUAUUACGUCAA", -2.38),
]

List self-splicing fitness (ln) for every entry below, keeping the order given.
1. CUAGAGCAAUAUUACGGCUU
2. GCCGAGCAAUAUUACGUACU
3. CUAAAGCAAUAUUACGGCGG
4. AAUCAGCAAUAUUACGCUCU
5. CACCAGCAAUAUUACGCGGU
6. GCACAGCAAUAUUACGGAAU
7. UAGCAGCAAUAUUACGCAAG

1: -1.94; 2: -1.23; 3: 0.0633; 4: 0.0812; 5: -3.31; 6: -0.95; 7: -1.76
